Quick reference for pIC50 among some molecules
- Tested on: 186277-243-T-J2-PDC complex spheroid growth;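 also: spheroids exposed to compounds for seven days before the viability read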
- assayExplanation: Anticancer human tumor 186277-243-T-J2-PDC patient-derived colon adenocarcinoma cell line growth inhibition [AhR]
- measurementContext: curve of first compound; second compound 10 µM
Hey, just a heads up that pIC50 is the negative log base 10 of the concentration in molar.

{"columns": ["molecule", "numericResult"],
 "data": [
  ["O=C(C=Cc1cccc(S(=O)(=O)Nc2ccccc2)c1)NO + Cc1ccccc1N=Nc1ccc(NC(=O)c2ccnn2C)c(C)c1", 5.83]
]}

Entry under test: O=C(C=Cn1cnc(-c2cc(C(F)(F)F)cc(C(F)(F)F)c2)n1)NNc1cnccn1 + Cc1cncc(-c2nc(NCCc3c[nH]c4ccccc34)c3ncn(C(C)C)c3n2)c1 . Its pIC50 was 7.39

meta.source: PubChem BioAssay AID1918991
